- Assay Method Text: Antiplatelet activity against washed rabbit platelet assessed as arachidonic acid-induced platelet aggregation at 20 ug/mL pre-incubated 3 mins before arachidonic acid challenge by turbidimetric method
- Condition Details: Oryctolagus cuniculus
Observable: Aggregation % at 20 µg/mL (%)
The reply should be a number in %, with the unit left off.

Q: Would you kindly share the measured Aggregation % at 20 µg/mL for COc1ccc2ccc(=O)oc2c1CC=C(C)C ?
Ans: 84.5

Q: Would you mind telling me what Aggregation % at 20 µg/mL value was observed for CCCCCCCC/C=C\CCCCCCCC(=O)OC [METHYL OLEATE] ?
Ans: 81.7

Q: Give the measured Aggregation % at 20 µg/mL of CC(=O)Oc1ccccc1C(=O)O .
Ans: 11.7

Q: What value of Aggregation % at 20 µg/mL has been recorded for this entry: COc1cc(O)c2c(=O)c(OC)c(-c3ccc(OC)c(O)c3)oc2c1
Ans: 66.3
